# TARGET OF ASSAY: h-jak3 (JAK3: Recombinant human kinase domain) (Homo sapiens)
# Construct: JAK3: Recombinant human kinase domain from Millipore (Cat # 14-629); purchased Millipore 14-629
# Sequence (P52333 822-1111 limits assumed): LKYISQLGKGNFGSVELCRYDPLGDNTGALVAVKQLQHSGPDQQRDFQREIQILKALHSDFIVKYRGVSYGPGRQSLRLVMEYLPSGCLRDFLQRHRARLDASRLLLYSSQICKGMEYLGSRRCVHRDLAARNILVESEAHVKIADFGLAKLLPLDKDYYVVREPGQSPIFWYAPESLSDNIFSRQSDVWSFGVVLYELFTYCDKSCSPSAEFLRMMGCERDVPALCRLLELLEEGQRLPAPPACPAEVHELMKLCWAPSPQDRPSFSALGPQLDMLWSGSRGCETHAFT
# EXPERIMENT DESCRIPTION: Determination of IC50 of Janus Kinase (JAK) inhibition, radioactive end-point 33P-ATP assay, JAK3
# Format: biochemical
Reported Ki is given for each of the following compounds.
Could you give me the number in nM? Just the number is fine.

Worked examples follow.
COMPOUND: CCS(=O)(=O)N1CCC(C)[C@H](c2ccc3cnc4[nH]ccc4n23)C1 (stereo in doubt) [Compound I-5]
QUANTITY UNIT: nM
Ki: 119

COMPOUND: CC1CCCCN1c1ccc2cnc3[nH]ccc3n12 (stereo not drawn) [Compound I-3]
QUANTITY UNIT: nM
Ki: 20.5

Lab note: h-jak3 (JAK3: Recombinant human kinase domain) (Homo sapiens) assay, enter Ki for c1cc2c(ncc3cnc(C4CCCCC4)n32)[nH]1 [Compound I-10] here
47.7

Please respond with reported Ki (system h-jak3 (JAK3: Recombinant human kinase domain) (Homo sapiens)) for CCS(=O)(=O)N1CC[C@@H](C)[C@@H](c2nnc3cnc4[nH]ccc4n23)C1 [Compound I-7] .
103

// output Ki; input C[C@H]1CCCC[C@H]1c1nnc2cnc3[nH]ccc3n12 [Compound I-6] ; system h-jak3 (JAK3: Recombinant human kinase domain) (Homo sapiens)
35.5

Provide measured Ki on h-jak3 (JAK3: Recombinant human kinase domain) (Homo sapiens) for C[C@H]1CCN(C(=O)CC#N)C[C@H]1c1nnc2cnc3[nH]ccc3n12 [Compound I-9] please.
12.8

Under h-jak3 (JAK3: Recombinant human kinase domain) (Homo sapiens), report Ki for c1cc2c(ncc3nnc(C4CCCCC4)n32)[nH]1 [Compound I-8]
225

Specify the recorded Ki for CCS(=O)(=O)N1CC[C@H](C)[C@H](c2ccc3cnc4[nH]ccc4n23)C1 [Compound I-4] , system: h-jak3 (JAK3: Recombinant human kinase domain) (Homo sapiens).
0.964

Specify the recorded Ki for c1cc2c(ncc3ccc(C4CCCCC4)n32)[nH]1 [Compound I-2] , system: h-jak3 (JAK3: Recombinant human kinase domain) (Homo sapiens).
10.4
